Test Description: Clearance value was determined
Type: ADME, organism-based
Conditions Used: mouse, in vivo
Test Readout: clearance (mL/min/kg)
Kindly answer with a numeric value in mL/min/kg, unit omitted.

Given COc1cccc(-c2c(C)n(Cc3c(F)cccc3F)c(=O)n(C[C@H](C)NC3CCCC3)c2=O)c1F , state its recorded clearance.
70.7

Same again, this time with COc1cccc(-c2c(C)n(Cc3c(F)cccc3F)c(=O)n(C[C@@H](C)NCc3nccs3)c2=O)c1F
97.3

Same again, this time with CCC(CC)N[C@@H](C)Cn1c(=O)c(-c2cccc(OC)c2F)c(C)n(Cc2c(F)cccc2F)c1=O
129

Same again, this time with COc1cccc(-c2c(C)n(Cc3c(F)cccc3F)c(=O)n(CCN(C)CCc3ccccn3)c2=O)c1
120

---

Give half-life for every item shown.
Test Description: Half life was determined
Assay type: ADME, organism-based
Conditions Used: mouse, in vivo
Kindly answer with a numeric value in min, unit omitted.

Given CCC(CC)N[C@@H](C)Cn1c(=O)c(-c2cccc(OC)c2F)c(C)n(Cc2c(F)cccc2F)c1=O , state its recorded half-life.
54

Same again, this time with COc1cccc(-c2c(C)n(Cc3c(F)cccc3F)c(=O)n(C[C@@H](C)NCc3nccs3)c2=O)c1F
78

Same again, this time with COc1cccc(-c2c(C)n(Cc3c(F)cccc3F)c(=O)n(CCN(C)CCc3ccccn3)c2=O)c1
24

Same again, this time with COc1cccc(-c2c(C)n(Cc3c(F)cccc3F)c(=O)n(C[C@H](C)NC3CCCC3)c2=O)c1F
36

---

This document collects Ki values reported for Gonadotropin-releasing hormone receptor (Homo sapiens).
Kindly answer with a numeric value in nM, unit omitted.

Could you share what Ki was measured for CCc1ccc(CN[C@@H](C)Cn2c(=O)c(-c3cccc(OC)c3F)c(C)n(Cc3c(F)cccc3F)c2=O)o1 , tested on Gonadotropin-releasing hormone receptor (Homo sapiens)?
15

Same again, this time with COc1cccc(-c2c(C)n(Cc3c(F)cccc3F)c(=O)n([C@H](C)CNCc3ccccc3C)c2=O)c1F
7

Same again, this time with Cc1c(-c2cccc(C(C)C)c2)c(=O)n(CCN(C)CCc2ccccn2)c(=O)n1Cc1c(F)cccc1F
240

Same again, this time with Cc1c(-c2cccc(Cl)c2)c(=O)n(CCN(C)CCc2ccccn2)c(=O)n1Cc1c(F)cccc1F
370

---

Target Entity: Gonadotropin-releasing hormone receptor (Homo sapiens, UniProt P30968)
Sequence (P30968 whole entry): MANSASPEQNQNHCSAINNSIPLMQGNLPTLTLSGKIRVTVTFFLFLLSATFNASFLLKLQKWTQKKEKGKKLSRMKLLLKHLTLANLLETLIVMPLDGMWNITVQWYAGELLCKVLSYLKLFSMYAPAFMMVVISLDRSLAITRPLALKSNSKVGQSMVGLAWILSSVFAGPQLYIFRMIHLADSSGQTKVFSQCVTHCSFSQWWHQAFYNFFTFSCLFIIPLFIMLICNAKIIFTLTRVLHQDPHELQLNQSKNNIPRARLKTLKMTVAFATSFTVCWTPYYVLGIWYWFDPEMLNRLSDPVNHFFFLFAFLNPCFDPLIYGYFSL
Test Readout: pKi
pKi (log units): -log10 of the concentration in mol/L.

Given Cc1c(-c2ccc3ccccc3c2)c(=O)n(CCN(C)CCc2ccccn2)c(=O)n1Cc1c(F)cccc1F , state its recorded pKi.
6.34

Same again, this time with Cc1ccc(-c2c(C)n(Cc3c(F)cccc3F)c(=O)n(CCN(C)CCc3ccccn3)c2=O)cc1
6.66

Same again, this time with COc1cccc(-c2c(C)n(Cc3c(F)cccc3F)c(=O)n(C[C@H](C)NCc3ccccc3)c2=O)c1F
7.60

Same again, this time with COc1cc(-c2c(C)n(Cc3c(F)cccc3F)c(=O)n(CCN(C)CCc3ccccn3)c2=O)cc(OC)c1OC
4.97

---

Give AUC for every item shown.
Test system: Mus musculus
Test Description: AUC value was determined after oral administration
Type: ADME, organism-based, Plasma
Conditions Used: in vivo
Kindly answer with a numeric value in µg·h/mL, unit omitted.

Given COc1cccc(-c2c(C)n(Cc3c(F)cccc3F)c(=O)n(C[C@H](C)NC3CCCC3)c2=O)c1F , state its recorded AUC.
0.057

Same again, this time with COc1cccc(-c2c(C)n(Cc3c(F)cccc3F)c(=O)n(CCN(C)CCc3ccccn3)c2=O)c1
0.023

Same again, this time with CCC(CC)N[C@@H](C)Cn1c(=O)c(-c2cccc(OC)c2F)c(C)n(Cc2c(F)cccc2F)c1=O
0.11

Same again, this time with COc1cccc(-c2c(C)n(Cc3c(F)cccc3F)c(=O)n(C[C@@H](C)NCc3nccs3)c2=O)c1F
0.104

---

Target Entity: Gonadotropin-releasing hormone receptor (Homo sapiens)
Sequence (P30968 whole entry): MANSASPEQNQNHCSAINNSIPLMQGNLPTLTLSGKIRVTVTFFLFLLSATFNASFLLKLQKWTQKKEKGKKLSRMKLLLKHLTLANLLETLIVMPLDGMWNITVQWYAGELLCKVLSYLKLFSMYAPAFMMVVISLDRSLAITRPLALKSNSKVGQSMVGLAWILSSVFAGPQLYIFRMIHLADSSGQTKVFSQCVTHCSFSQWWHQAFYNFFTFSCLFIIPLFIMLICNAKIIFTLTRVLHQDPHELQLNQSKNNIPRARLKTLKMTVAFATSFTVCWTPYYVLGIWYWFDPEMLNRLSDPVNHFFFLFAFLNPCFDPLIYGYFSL
Test Description: In vitro inhibition of [Ca2+] influx in RBL cells expressing Gonadotropin-releasing hormone receptor
Test Readout: pIC50
pIC50 (log units): -log10 of the concentration in mol/L.

Given COc1cccc(-c2c(C)n(Cc3c(F)cccc3F)c(=O)n(C[C@H](C)NCc3ccccc3)c2=O)c1F , state its recorded pIC50.
7.42

Same again, this time with COc1cccc(-c2c(C)n(Cc3c(F)cccc3F)c(=O)n(C[C@@H](C)NCc3nccs3)c2=O)c1F
8.21

Same again, this time with CCc1ccc(CN[C@@H](C)Cn2c(=O)c(-c3cccc(OC)c3F)c(C)n(Cc3c(F)cccc3F)c2=O)o1
7.57

Same again, this time with COc1cccc(-c2c(C)n(Cc3c(F)cccc3F)c(=O)n(C[C@H](C)NCc3sccc3C)c2=O)c1F
8.40

---

Target Entity: UniProt P30969
Test Description: In vivo inhibition of rat Gonadotropin releasing hormone receptor
Format: organism-based
Test Readout: pKi
pKi (log units): -log10 of the concentration in mol/L.

Given COc1cccc(-c2c(C)n(Cc3c(F)cccc3F)c(=O)n(C[C@@H](C)NCc3nccs3)c2=O)c1F , state its recorded pKi.
5.00

---

Give pKi for every item shown.
Target Entity: Gonadotropin-releasing hormone receptor (Rattus norvegicus)
Sequence (P30969 whole entry): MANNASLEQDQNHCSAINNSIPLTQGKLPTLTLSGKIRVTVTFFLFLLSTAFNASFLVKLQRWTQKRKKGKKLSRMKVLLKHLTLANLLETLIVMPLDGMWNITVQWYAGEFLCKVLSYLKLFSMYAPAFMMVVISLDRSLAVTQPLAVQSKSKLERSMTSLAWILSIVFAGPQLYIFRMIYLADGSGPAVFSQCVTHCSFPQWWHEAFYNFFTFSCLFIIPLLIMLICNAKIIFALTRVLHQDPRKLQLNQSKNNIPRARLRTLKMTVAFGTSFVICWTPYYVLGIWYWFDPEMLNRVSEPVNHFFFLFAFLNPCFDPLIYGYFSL
Test Description: In vivo inhibition of rat Gonadotropin-releasing hormone receptor
Assay type: organism-based
pKi (log units): -log10 of the concentration in mol/L.

Could you share what pKi was measured for CCc1ccc(CN[C@@H](C)Cn2c(=O)c(-c3cccc(OC)c3F)c(C)n(Cc3c(F)cccc3F)c2=O)o1 , tested on Gonadotropin-releasing hormone receptor (Rattus norvegicus)?
5.31

Same again, this time with COc1cccc(-c2c(C)n(Cc3c(F)cccc3F)c(=O)n(C[C@H](C)NCc3sccc3C)c2=O)c1F
5.49

Same again, this time with COc1cccc(-c2c(C)n(Cc3c(F)cccc3F)c(=O)n(C[C@H](C)NCc3ccccc3)c2=O)c1F
4.60

---

Test Description: Oral bioavailability in mouse
Format: ADME, organism-based
Conditions Used: in vivo
Give bioavailability for every item shown.
Kindly answer with a numeric value in %, unit omitted.

Given COc1cccc(-c2c(C)n(Cc3c(F)cccc3F)c(=O)n(C[C@H](C)NC3CCCC3)c2=O)c1F , state its recorded bioavailability.
2.2

Same again, this time with COc1cccc(-c2c(C)n(Cc3c(F)cccc3F)c(=O)n(CCN(C)CCc3ccccn3)c2=O)c1
1.6

Same again, this time with CCC(CC)N[C@@H](C)Cn1c(=O)c(-c2cccc(OC)c2F)c(C)n(Cc2c(F)cccc2F)c1=O
8.2

Same again, this time with COc1cccc(-c2c(C)n(Cc3c(F)cccc3F)c(=O)n(C[C@@H](C)NCc3nccs3)c2=O)c1F
6
